TESTED_TARGET: SARS-CoV-2 M^pro (Severe acute respiratory syndrome coronavirus 2)
*1 amine or outer side, *2 acyl side, *3 side chain or, on linkers, in order; H or OH if unused. Where a SMILES comes first, the peptide text is derived from it. Bridges are numbered along the chain shown (N, C = ends). [ ]: non-standard residue; d: D form. ACHC(1S,2S) = O=C([C@H]1CCCC[C@@H]1N[*:1])[*:2]
EXPERIMENTAL_ENDPOINT: pKd
Entry type: numeric. Quantity: pKd, the -log10 of concentration in molar units.

Inquiry: Identify pKd associated with the compound CC(C)C[C@@H]1NC(=O)[C@H]2CCCC[C@@H]2NC(=O)[C@H](CC(N)=O)NC(=O)[C@H](CC(=O)O)NC(=O)[C@H](Cc2ccc(O)cc2)NC(=O)[C@H](CCCNC(=N)N)NC(=O)[C@H](Cc2c[nH]cn2)NC(=O)[C@H](Cc2ccccc2)NC(=O)[C@@H](Cc2ccc(O)cc2)NC(=O)CSC[C@H](C(N)=O)NC(=O)[C@H](Cc2ccc(O)cc2)NC(=O)[C@H](C(C)C)NC1=O [BM3, ^AcyFHRYDNβ^2LVYc-NH2] ({CH2CO}-[dY]FHRYDN[ACHC(1S,2S)]LVY[dC]-NH2; thioether N-12)
Reply text: 8.11

---

Parameter pIC50, tested on SARS-CoV-2 M^pro (Severe acute respiratory syndrome coronavirus 2), listed per item.
*1 amine or outer side, *2 acyl side, *3 side chain or, on linkers, in order; H or OH if unused. Where a SMILES comes first, the peptide text is derived from it. Bridges are numbered along the chain shown (N, C = ends). [ ]: non-standard residue; d: D form. ACHC(1S,2S) = O=C([C@H]1CCCC[C@@H]1N[*:1])[*:2]; X1 = O=C([C@@H]1CCC[C@@H]1N[*:1])[*:2]
// pIC50 here means minus log10 of the molar concentration (mol/L)

Consider the reported pIC50 for these compounds:
COMPOUND	pIC50
CC(C)C[C@@H]1NC(=O)[C@H](CO)NC(=O)[C@H](CCCNC(=N)N)NC(=O)[C@H](Cc2ccccc2)NC(=O)[C@@H]2CCC[C@@H]2NC(=O)[C@H](Cc2c[nH]cn2)NC(=O)[C@H](Cc2ccccc2)NC(=O)[C@@H](Cc2ccc(O)cc2)NC(=O)CSC[C@H](C(N)=O)NC(=O)CNC(=O)[C@H](Cc2ccccc2)NC(=O)[C@H](C(C)C)NC(=O)[C@H](Cc2ccccc2)NC1=O [BM6, ^AcyFHβ^1FRSLFVFGc-NH2] ({CH2CO}-[dY]FH[X1]FRSLFVFG[dC]-NH2; thioether N-13)	5.67
CC(C)C[C@@H]1NC(=O)[C@H](Cc2c[nH]cn2)NC(=O)[C@H](Cc2ccc(O)cc2)NC(=O)[C@@H]2CCC[C@@H]2NC(=O)[C@H](CC(=O)O)NC(=O)[C@H](Cc2ccccc2)NC(=O)[C@@H](Cc2ccc(O)cc2)NC(=O)CSC[C@H](C(N)=O)NC(=O)[C@H](CCCNC(=N)N)NC(=O)[C@@H]2CCC[C@@H]2NC(=O)[C@H](CC(N)=O)NC1=O [BM7, ^AcyFDβ^1YHLNβ^1Rc-NH2] ({CH2CO}-[dY]FD[X1]YHLN[X1]R[dC]-NH2; thioether N-11)	7.70

Let us move to another entry and its pIC50.
Inquiry: Given CC(C)C[C@@H]1NC(=O)[C@H]2CCCC[C@@H]2NC(=O)[C@H](CC(N)=O)NC(=O)[C@H](CC(=O)O)NC(=O)[C@H](Cc2ccc(O)cc2)NC(=O)[C@H](CCCNC(=N)N)NC(=O)[C@H](Cc2c[nH]cn2)NC(=O)[C@H](Cc2ccccc2)NC(=O)[C@@H](Cc2ccc(O)cc2)NC(=O)CSC[C@H](C(N)=O)NC(=O)[C@H](Cc2ccc(O)cc2)NC(=O)[C@H](C(C)C)NC1=O [BM3, ^AcyFHRYDNβ^2LVYc-NH2] ({CH2CO}-[dY]FHRYDN[ACHC(1S,2S)]LVY[dC]-NH2; thioether N-12) , report its pIC50 on SARS-CoV-2 M^pro (Severe acute respiratory syndrome coronavirus 2).
Reply text: 7.40
